Reported pKi against UniProtKB P04150, gathered from multiple publications, appears below.
Sequence (P04150 whole entry): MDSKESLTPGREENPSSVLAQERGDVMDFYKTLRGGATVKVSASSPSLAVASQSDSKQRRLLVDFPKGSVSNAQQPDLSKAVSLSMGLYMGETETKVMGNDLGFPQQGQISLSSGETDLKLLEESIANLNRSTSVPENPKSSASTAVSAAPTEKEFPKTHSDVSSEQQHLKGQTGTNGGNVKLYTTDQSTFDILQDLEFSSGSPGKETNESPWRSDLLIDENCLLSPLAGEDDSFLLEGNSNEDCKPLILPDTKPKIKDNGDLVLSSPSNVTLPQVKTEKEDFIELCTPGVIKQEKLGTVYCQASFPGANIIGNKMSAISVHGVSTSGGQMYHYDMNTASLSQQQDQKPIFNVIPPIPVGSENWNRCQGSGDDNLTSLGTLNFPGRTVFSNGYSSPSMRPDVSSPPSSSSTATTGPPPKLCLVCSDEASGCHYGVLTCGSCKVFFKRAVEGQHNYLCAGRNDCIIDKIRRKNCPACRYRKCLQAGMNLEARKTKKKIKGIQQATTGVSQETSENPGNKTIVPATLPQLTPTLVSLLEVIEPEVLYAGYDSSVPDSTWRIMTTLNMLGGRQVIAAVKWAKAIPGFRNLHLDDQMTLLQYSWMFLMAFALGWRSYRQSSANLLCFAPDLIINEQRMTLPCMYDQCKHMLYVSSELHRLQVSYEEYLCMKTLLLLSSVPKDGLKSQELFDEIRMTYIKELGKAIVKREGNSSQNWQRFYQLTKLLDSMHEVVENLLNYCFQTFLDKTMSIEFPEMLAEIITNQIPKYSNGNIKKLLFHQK
pKi: −log10 of the molar value.

{"MOLECULE": "COc1ccc2c(c1)CCC1=CC(=O)CCC12Cc1ccccc1 (single isomer, unassigned; form 2)", "EXPERIMENTAL_TARGET": "UniProtKB P04150", "INEQUALITY_OPERATOR": "<", "pKi": 5.00}
{"MOLECULE": "CC(c1ccccc1)(c1c[nH]c2c(NS(C)(=O)=O)cccc12)C1CC1 (configuration not stated)", "EXPERIMENTAL_TARGET": "UniProtKB P04150", "INEQUALITY_OPERATOR": "≥", "pKi": 6.30}
{"MOLECULE": "CC(C)(C(=O)Nc1nccs1)C(c1ccccc1)c1ccn2c(-c3ccccc3)ncc2c1 (configuration not stated)", "EXPERIMENTAL_TARGET": "UniProtKB P04150", "INEQUALITY_OPERATOR": "=", "pKi": 8.30}
{"MOLECULE": "CS(=O)(=O)Nc1ccc(C=C2c3ccccc3CCc3ccccc32)cc1", "EXPERIMENTAL_TARGET": "UniProtKB P04150", "INEQUALITY_OPERATOR": "<", "pKi": 7.00}
{"MOLECULE": "O=C1CC[C@@]2(Cc3ccccc3)c3ccc(O)cc3CC[C@@H]2C1", "EXPERIMENTAL_TARGET": "UniProtKB P04150", "INEQUALITY_OPERATOR": "=", "pKi": 8.22}
{"MOLECULE": "Cc1c[nH]c2c(-c3c(F)cc4c(c3F)/C(=N/OC(C)(C)CO)CC(C)(C)N4)cccc12", "EXPERIMENTAL_TARGET": "UniProtKB P04150", "INEQUALITY_OPERATOR": "=", "pKi": 9.10}
{"MOLECULE": "CC(C)(C(=O)Nc1nncs1)C(c1ccccc1)c1ccc2c(cnn2CCCO)c1 (racemic)", "EXPERIMENTAL_TARGET": "UniProtKB P04150", "INEQUALITY_OPERATOR": "=", "pKi": 7.77}
{"MOLECULE": "COCc1ccsc1/C=C1\\Oc2ccc(O)c(OC)c2-c2ccc3c(c21)C(C)=CC(C)(C)N3", "EXPERIMENTAL_TARGET": "UniProtKB P04150", "INEQUALITY_OPERATOR": "=", "pKi": 9.70}
{"MOLECULE": "C[C@H]1c2c(cc(F)c(-c3cccc4cc[nH]c34)c2F)NC(C)(C)[C@@H]1OC(=O)Nc1ccc2c(c1)OCO2", "EXPERIMENTAL_TARGET": "UniProtKB P04150", "INEQUALITY_OPERATOR": "=", "pKi": 7.91}
{"MOLECULE": "C[C@]12Cc3cnn(-c4ccc(F)cc4)c3C=C1CCC[C@@H]2[C@](C)(O)c1ccc(F)cc1", "EXPERIMENTAL_TARGET": "UniProtKB P04150", "INEQUALITY_OPERATOR": "=", "pKi": 8.60}
{"MOLECULE": "CC(C)(C(=O)NC(N)=O)[C@H]1c2ccccc2Oc2nc(-c3ccc(C(=O)N4CCCC4)cc3)ccc21", "EXPERIMENTAL_TARGET": "UniProtKB P04150", "INEQUALITY_OPERATOR": "=", "pKi": 8.72}
{"MOLECULE": "CC(=O)NC(=O)C(C)(C)[C@@H]1c2ccc(-c3ccc(C(=O)N4CCCC4)cc3)nc2Oc2c(F)cccc21", "EXPERIMENTAL_TARGET": "UniProtKB P04150", "INEQUALITY_OPERATOR": "=", "pKi": 8.60}
